- TARGET UNDER TEST: UniProt P40337
- ASSAY INFO: Fluorescence polarization competition assay (HIF-1α peptide FP displacement)
- PARTICULARS: IC50 (μM) 10% DMSO, 10% DMSO
VALUE TYPE: IC50 (µM)

{"COMPOUND": "Cc1cc(CC(=O)N2C[C@H](O)C[C@H]2C(=O)NCc2ccc(-c3ccn[nH]3)cc2)on1 [VL160]", "IC50, µM": 12.1}

I. Cc1cc(CC(=O)N2C[C@H](O)C[C@H]2C(=O)NCc2ccc(-c3cnc[nH]3)cc2)on1 [VL158]
II. COc1cccc(CNC(=O)[C@@H]2C[C@@H](O)CN2C(=O)Cc2cc(C)no2)c1 [VL024]
[ask] // which entry has the larger IC50 value, I or II ? Answer by quoting the chosen item's label.
[reply] II
(II: 511 µM, I: 266 µM)

---

- TARGET UNDER TEST: VHL (Homo sapiens, UniProt P40337)
- ASSAY INFO: Fluorescence polarization competition assay (HIF-1α peptide FP displacement)
- PARTICULARS: IC50 (μM) 10% DMSO, 10% DMSO
VALUE TYPE: IC50

Below: 5 compounds and their reported IC50.
{"COMPOUND": "O=C(NCCc1ccc(O)cc1)[C@@H]1C[C@@H](O)CN1C(=O)Cc1nnn[nH]1 [VL005]", "IC50": "> 1000 µM"}
{"COMPOUND": "CC(=O)Nc1ccc(Br)cc1C(=O)N1C[C@H](O)C[C@H]1C(=O)NCc1ccc(Cl)cc1 [VL083]", "IC50": "> 1000 µM"}
{"COMPOUND": "O=C(NCc1ccc(Cl)cc1)[C@@H]1C[C@@H](O)CN1C(=O)CCN1CCCCC1 [VL104]", "IC50": "> 1000 µM"}
{"COMPOUND": "Cc1cc(CC(=O)N2C[C@H](O)C[C@H]2C(=O)NCCN2CCOCC2)on1 [VL015]", "IC50": "> 1000 µM"}
{"COMPOUND": "Cc1cc(CC(=O)N2C[C@H](O)C[C@H]2C(=O)N(C)Cc2ccc(Cl)cc2)on1 [VL147]", "IC50": "> 1000 µM"}

Note to self: IC50 recorded for Cc1cc(CC(=O)N2C[C@H](O)C[C@H]2C(=O)NCc2ccc(-c3c(C)n[nH]c3C)cc2)on1 [VL152] was 22.8 µM

Entry Cc1cc(CC(=O)N2C[C@H](O)C[C@H]2C(=O)N2CCc3ccccc3C2)on1 [VL039] — recorded IC50 = > 1000 µM

The measured IC50 associated with O=C(NCc1ccc(Cl)cc1)[C@@H]1C[C@@H](O)CN1S(=O)(=O)c1cccc2cccnc12 [VL130] reads > 1000 µM

The value of IC50 measured for the compound Cc1cc(CC(=O)N2C[C@H](O)C[C@H]2C(=O)NCc2ccc3c(c2)OCO3)on1 [VL017] turned out to be ~510 µM

Lookup result for O=C(NCc1cccc(Cl)c1)[C@@H]1C[C@@H](O)CN1C(=O)Cc1nnn[nH]1 [VL012] ; measured IC50: > 1000 µM

---

- TARGET UNDER TEST: VHL (Homo sapiens)
- ASSAY INFO: Fluorescence polarization competition assay (HIF-1α peptide FP displacement)
- PARTICULARS: IC50 (μM) 10% DMSO, 10% DMSO
VALUE TYPE: IC50 (µM)

I. Cc1cc(CC(=O)N2C[C@H](O)C[C@H]2C(=O)N[C@H](CO)c2ccc(Cl)cc2)on1
II. Cc1cc(CC(=O)N2C[C@H](O)C[C@H]2C(=O)NCc2ccc(-c3cncs3)cc2)on1
III. CCCNC(=O)OC[C@H](NC(=O)[C@@H]1C[C@@H](O)CN1C(=O)Cc1cc(C)no1)c1ccc(Cl)cc1
[ask] Put the items in order so that reported IC50 rises from first to last. Quick reminder: the answer is the labels in the order asked.
[reply] II, III, I
